Test system: Drug-Resistant P. aeruginosa (DRPa) 4007
Method summary: microbe, parasite or virus in culture
Format: cell-based, Pseudomonas aeruginosa
Measurement context: microdilution, 10 mM sodium phosphate pH 7.2 + 20% MH broth, 24 h at 37 °C, OD600, triplicate
Ends that are not written are not given here.
MIC for assorted substances
API: value field is a number in µM; no unit string.

Illustrative cases are given below, each with its answer.
{"Substance": "RRIIRRIWRW-NH2 [RIW-10]", "MIC / µM": 8}
{"Substance": "RRIWRRWIRI-NH2 [RWI-10]", "MIC / µM": 8}

[in] Recorded MIC of WIKKIWKKIIKEIK-NH2 [WIKE-14] , please.
[out] 8

[in] For KKIWKKWIKI-NH2 [KWI-10] , what is its reported MIC?
[out] 8

[in] // lookup MIC for WIKKIWKKIIKKIK-NH2 [WIK-14]
[out] 1

[in] Any idea what MIC was measured for KKIIKKIWKW-NH2 [KIW-10] ?
[out] 16

[in] Please give the measured MIC for this substance: KKIWKKWIKKIIKI-NH2 [KWI-14]
[out] 1

###

Test system: Drug-Resistant P. aeruginosa (DRPa) 4007
Method summary: microbe, parasite or virus in culture
Type: cell-based, Pseudomonas aeruginosa
Measurement context: microdilution, 10 mM sodium phosphate pH 7.2 + 20% MH broth, 24 h at 37 °C, OD600, triplicate
Ends that are not written are not given here.
Measured endpoint: MIC
Please answer using a numeric value trailed by its unit.

Study these solved cases before continuing.
{"Substance": "KKIIKKIIKKIWKW-NH2 [KIW-14]", "Measured value": "2 µM"}
{"Substance": "WIRRIWRRIR-NH2 [WIR-10]", "Measured value": "2 µM"}

Here's the next entry for you.
[in] Requested read-out: MIC. Entry: WIKKIWKKIK-NH2 [WIK-10]
[out] 8 µM

Origin of the recorded values: paper PMC9952520
